These data points were gathered from patent US20020119995A1.

Tested on: HSV-1 F
TEST SUMMARY: anti-HSV screening test (cytopathogenic effect, fluorescein diacetate readout) in Vero cells, HSV-1 F
Assay type: cell-based
EXPERIMENTAL CONDITIONS: Human alphaherpesvirus 1; HSV-1 F, Vero cells; half-maximal fluorescence intensity with respect to the non-infected cell control; read-out: IC50 [μM] HSV-1 F/Vero
Description: HSV (HSV-1 Walki, HSV-1F or HSV-2G) was cultivated on Vero cells (ATCC CCL-81) under the following conditions. […] The anti-HSV action was determined in a screening test system in 96-well microtitre plates using various cell lines of neuronal, lymphoid and epithelial origin, such as, for example, Vero (kidney cell line of the green monkey), MEF (murine embryonal fibroblasts), HELF (human embryonal fibroblasts), NT2 (human neuronal cell line) or Jurkat (human lymphoid T-cell line). […]
Quick reference: IC50 of the listed items.
Give a bare numeral; the unit µM is implied.

The following molecules have reported results that may help.
molecule="CNS(=O)(=O)c1sc(C(C)C(=O)Nc2ccc(-c3ccccc3)cc2)nc1C (stereo not shown) [Example 5]" recorded_measurement=0.1
molecule="Cc1nc(C(C)C(=O)Nc2ccc(-c3ccccn3)cc2)sc1S(N)(=O)=O (stereo not shown) [Example 2]" recorded_measurement=0.2
molecule="Cc1nc(C(C)C(=O)Nc2ccc(-c3ccccc3)cc2)sc1S(N)(=O)=O (stereo not shown) [Example 1]" recorded_measurement=0.05

Proceed to the following item.
*Q* // fetch IC50 for CCOc1ccc(NC(=O)C(C)c2nc(C)c(S(N)(=O)=O)s2)cc1 (stereo not shown) [Example 4] ; system: HSV-1 F
*A* 0.75
